Values of IC50 for Poly [ADP-ribose] polymerase 1 (Homo sapiens), collected from a number of published sources:

smilesstructure=CN(c1ccc(N2CCOCC2)c(F)c1)c1ccnc(Nc2ccc(C(=O)Nc3nc4ccccc4[nH]3)cc2)n1 result="> 10 µM"
smilesstructure=Cc1c(Cc2ccc(F)c(C(=O)N[C@@H](Cc3ccccc3)C(=O)N[C@@H](CC(C)C)B3O[C@@H]4C[C@@H]5C[C@@H](C5(C)C)[C@]4(C)O3)c2)n[nH]c(=O)c1C result="> 1 µM"

Consider the compound O=C(CCc1cc(=O)n2ccccc2n1)N[C@H]1CC[C@H](c2nnc(-c3ccccc3)o2)CC1 tested on Poly [ADP-ribose] polymerase 1 (Homo sapiens); state its IC50.
> 85 µM

Consider the compound O=C(CCc1ccc(Cl)cc1Cl)Nc1nnc2n1CCS2 tested on Poly [ADP-ribose] polymerase 1 (Homo sapiens); state its IC50.
> 19 µM

* * *

Values of IC50 for Poly [ADP-ribose] polymerase 1 (Homo sapiens), collected from a number of published sources:
endpoint: IC50 (nM)

(A) CC(=O)N1CCN(Cc2ccc(-c3[nH]c4cc(F)cc5c4c3CCNC5=O)cc2)CC1
(B) CCS(=O)(=O)Nc1cccc(Cc2n[nH]c(=O)c3ccccc23)c1
(C) CN1CCCc2c1cc(-c1ccc(Br)cc1)[nH]c2=O
Form: Sort by [IC50] Order [ ascending ] List the labels in the requested order.
A, B, C
(A: 1.31 nM, B: 290 nM, C: 2000 nM)

* * *

Values of IC50 for Poly [ADP-ribose] polymerase 1 (Homo sapiens, UniProt P09874), collected from a number of published sources:

Take a look at these entries with their results.
smilesstructure=CC(C)C[C@H](NC(=O)[C@H](Cc1ccccc1)NC(=O)c1cc(COc2ccccc2C(N)=O)ccc1F)B1O[C@@H]2C[C@@H]3C[C@@H](C3(C)C)[C@]2(C)O1 subjectoftest="Poly [ADP-ribose] polymerase 1 (Homo sapiens, UniProt P09874)" result="> 1 µM"
smilesstructure=O=c1[nH]c(N2CCC3(CC2)OCc2ccccc23)nc2c1CCCC2 subjectoftest="Poly [ADP-ribose] polymerase 1 (Homo sapiens, UniProt P09874)" result="> 20 µM"

Note: attention shifts to another entry.
Consider the molecule COc1ccc(C2(CNC(=O)c3ccc(NC(=O)c4ccco4)cc3Cl)CCOCC2)cc1 tested on Poly [ADP-ribose] polymerase 1 (Homo sapiens, UniProt P09874); state its IC50.
Sequence (P09874 whole entry): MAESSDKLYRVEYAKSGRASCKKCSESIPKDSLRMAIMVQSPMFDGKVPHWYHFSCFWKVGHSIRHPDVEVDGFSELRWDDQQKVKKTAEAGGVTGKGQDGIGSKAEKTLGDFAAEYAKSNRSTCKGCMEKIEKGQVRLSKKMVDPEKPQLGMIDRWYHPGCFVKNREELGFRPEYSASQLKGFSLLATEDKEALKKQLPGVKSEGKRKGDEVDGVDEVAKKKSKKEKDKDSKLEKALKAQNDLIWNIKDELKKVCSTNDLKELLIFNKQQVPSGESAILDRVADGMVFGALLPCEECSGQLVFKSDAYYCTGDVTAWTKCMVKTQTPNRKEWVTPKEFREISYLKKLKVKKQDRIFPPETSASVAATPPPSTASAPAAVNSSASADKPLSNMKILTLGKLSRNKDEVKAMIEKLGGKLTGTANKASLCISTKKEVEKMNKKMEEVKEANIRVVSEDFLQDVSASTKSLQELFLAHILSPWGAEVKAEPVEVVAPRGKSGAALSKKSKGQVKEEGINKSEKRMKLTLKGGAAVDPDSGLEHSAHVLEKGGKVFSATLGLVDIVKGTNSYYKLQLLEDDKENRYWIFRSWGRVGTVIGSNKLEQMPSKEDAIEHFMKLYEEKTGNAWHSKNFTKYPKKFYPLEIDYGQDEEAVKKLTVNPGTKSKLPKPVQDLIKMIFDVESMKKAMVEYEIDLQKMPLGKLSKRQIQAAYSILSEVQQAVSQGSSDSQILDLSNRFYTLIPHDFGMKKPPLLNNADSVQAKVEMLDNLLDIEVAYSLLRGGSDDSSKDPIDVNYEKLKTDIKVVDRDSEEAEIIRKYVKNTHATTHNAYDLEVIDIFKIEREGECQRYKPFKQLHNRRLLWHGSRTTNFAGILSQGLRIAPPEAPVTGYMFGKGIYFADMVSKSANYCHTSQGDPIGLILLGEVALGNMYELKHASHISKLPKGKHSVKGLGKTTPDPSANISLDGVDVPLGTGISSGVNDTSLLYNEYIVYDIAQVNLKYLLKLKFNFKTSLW
> 100 µM
